Biological target: Cyno FGFR2b
Assay: SPR affinity determination, cyno FGFR2b (Example 9)
Format: binding
RECORDED METRIC: kd (S^−1)

{"MOLECULE": "BGAm1823: parental murine anti-FGFR2b antibody; VH SEQ ID NO: 28, VL SEQ ID NO: 30 (antibody, V domains shown, Synthetic: VH AA; Synthetic: VL AA) VH: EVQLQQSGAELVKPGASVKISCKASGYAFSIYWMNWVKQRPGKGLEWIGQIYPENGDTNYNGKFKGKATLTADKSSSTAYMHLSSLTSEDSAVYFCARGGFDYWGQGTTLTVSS VL: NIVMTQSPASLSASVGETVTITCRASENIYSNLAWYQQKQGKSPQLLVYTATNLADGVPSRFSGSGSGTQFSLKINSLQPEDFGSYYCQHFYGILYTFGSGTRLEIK", "OUTPUT UNIT": "S^−1", "MEASURED VALUE": "1.80E−03"}
